Tested on: RT16 CHO cells (expresses only human FRα)
Experiment: Cell proliferation assay, RT16 CHO subline
Assay type: cell-based, Chinese hamster
Details: 96 h, 2 nM leucovorin; mean (standard error)
Property measured: IC50 (nM)
Numbers only, in nM.

Please list IC50 recorded for the compound Nc1nc2sc(CCCCc3cccc(C(=O)N[C@@H](CCC(=O)O)C(=O)O)n3)cc2c(=O)[nH]1
24.7

----------
System: RT16 CHO cells (expresses only human FRα)
Assay: Cell proliferation assay, RT16 CHO subline
Format: cell-based, Chinese hamster
Details: Homo sapiens, RT16, 96 h, 2 nM leucovorin, mean (standard error)
Property measured: pIC50
Give bare numbers, as −log10 of the molar value.

{"Molecule": "Nc1nc2sc(CCCc3ccc(C(=O)N[C@@H](CCC(=O)O)C(=O)O)c(F)c3)cc2c(=O)[nH]1 [Compound 6]", "Tgt": "RT16 CHO cells (expresses only human FRα)", "pIC50": 8.97}
{"Molecule": "Nc1nc2sc(CCCCc3cccc(C(=O)N[C@@H](CCC(=O)O)C(=O)O)n3)cc2c(=O)[nH]1 [Compound 3]", "Tgt": "RT16 CHO cells (expresses only human FRα)", "pIC50": 7.60}

Batch request: pIC50 per item, same order as input.
1. Nc1nc2sc(CCCCc3cnc(C(=O)N[C@@H](CCC(=O)O)C(=O)O)c(F)c3)cc2c(=O)[nH]1 [Compound 5]
2. Nc1nc2sc(CCCCc3ccc(C(=O)N[C@@H](CCC(=O)O)C(=O)O)c(F)c3)cc2c(=O)[nH]1 [Compound 7]
3. Nc1nc2sc(CCCc3csc(C(=O)N[C@@H](CCC(=O)O)C(=O)O)c3F)cc2c(=O)[nH]1 [Compound 8]

1: 8.91; 2: 8.64; 3: 8.71
